What GI50 was measured for each of the following?
Tested on: OVCAR-3
Assay summary: NCI tumour cell line growth inhibition, 48 h
The source made the active and inactive calls. Cut-off read from the data, not from the text of the source: active = GI50 up to about 1.1 µM and inactive = higher.

[
  {
    "Compound": "Cc1nc(N)c(N2CCN(CN)CC2)c(O)n1",
    "Result": "> 100 µM (inactive)"
  },
  {
    "Compound": "Cc1ccc(/C=C/C(=O)c2sc(-c3cccnc3)nc2C)cc1",
    "Result": "> 100 µM (inactive)"
  },
  {
    "Compound": "c1ccc2c(c1)Sc1ccccc1N2CCCN1c2ccccc2Sc2ccccc21",
    "Result": "63.5 µM (inactive)"
  },
  {
    "Compound": "CC(C)=CCCC(C)CCOS(=O)C(F)(F)F (stereo unspecified)",
    "Result": "11.2 µM (inactive)"
  },
  {
    "Compound": "CCN(CCCl)CCCCCNc1c2ccccc2nc2ccc(OC)cc12",
    "Result": "1.83 µM (inactive)"
  }
]

For every item below, please supply its GI50.
1. O=C1C=CC(=O)c2c(NCC3CC3)ccc(NCC3CC3)c21
2. CCOC(=O)c1csc(NC(=O)CCN2CCCC2)n1
3. COc1ccc(N2C(=O)C3c4[nH]c5ccc(OC)cc5c4C4CCC(C(C)C)CC4C3C2=O)cc1 (stereo unspecified)
4. C/C(=N\NC(=N)N)C(CN1CCOCC1)C(c1ccccc1)c1c(O)c2ccccc2oc1=O (stereo unspecified)

26.7 µM (inactive)
> 100 µM (inactive)
> 100 µM (inactive)
> 100 µM (inactive)

For every item below, please supply its GI50.
1. C#CC1(O)CCC2[C@@H]3CCc4cc(Oc5nc(F)nc(-c6c7ccccc7cn6C)n5)ccc4C3CC[C@@]21C (stereo partly specified)
2. CS(=O)(=O)OCCN(CCOS(C)(=O)=O)c1ccc(/C=N/N=c2/nc[nH]c3nc[nH]c23)cc1
3. S=C1NC(c2ccccc2)=NC(Cc2ccccc2)(c2ccccc2)N1c1ccccc1 (stereo unspecified)

["> 100 µM (inactive)", "13.4 µM (inactive)", "> 100 µM (inactive)"]

For every item below, please supply its GI50.
1. NC1=Nc2ccccc2Sc2ccccc21
2. CSc1nc(-c2ccc(Cl)cc2)c(C#N)c(=O)n1C1OC(COC(C)=O)C(OC(C)=O)C(OC(C)=O)C1OC(C)=O (stereo unspecified)

> 100 µM (inactive)
12.6 µM (inactive)

For every item below, please supply its GI50.
1. O=C(c1ccccc1)c1ccc2[nH]c(-c3c(Cl)c(Cl)c(Cl)c(Cl)c3C(=O)N/N=C\C=C\c3ccccc3)nc2c1
2. COC(=O)c1ccc(C(=O)OC)c2nc3cc(Cl)ccc3nc12
3. CCOC(OCC)C(CCc1ccccc1)c1c(N)nc(N)[nH]c1=O (stereo unspecified)

1. 25.1 µM (inactive)
2. > 100 µM (inactive)
3. 62.4 µM (inactive)

For every item below, please supply its GI50.
1. CC(=O)N[C@@H](Cc1ccc(O)cn1)C(=O)NCc1ccc2c(c1)OCO2
2. Cc1ccc(S(=O)(=O)CC2(Br)CCc3ccccc3C2=O)cc1 (stereo unspecified)
3. c1ccc2c(c1)nnn1c3cnccc3nc21
4. CCOC(=O)C1=c2[nH]c3cccc4cccc(c43)n2C(=O)CC1

["> 100 µM (inactive)", "45.3 µM (inactive)", "18.9 µM (inactive)", "> 100 µM (inactive)"]
